Could you please report measured furin cleavage Z-score for the items listed next?
- STUDY_TARGET: furin, P09958;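 note: purified furin at 1:10 enzyme:substrate in 50 mM HEPES pH 7.5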
- Sequence (P09958 whole entry): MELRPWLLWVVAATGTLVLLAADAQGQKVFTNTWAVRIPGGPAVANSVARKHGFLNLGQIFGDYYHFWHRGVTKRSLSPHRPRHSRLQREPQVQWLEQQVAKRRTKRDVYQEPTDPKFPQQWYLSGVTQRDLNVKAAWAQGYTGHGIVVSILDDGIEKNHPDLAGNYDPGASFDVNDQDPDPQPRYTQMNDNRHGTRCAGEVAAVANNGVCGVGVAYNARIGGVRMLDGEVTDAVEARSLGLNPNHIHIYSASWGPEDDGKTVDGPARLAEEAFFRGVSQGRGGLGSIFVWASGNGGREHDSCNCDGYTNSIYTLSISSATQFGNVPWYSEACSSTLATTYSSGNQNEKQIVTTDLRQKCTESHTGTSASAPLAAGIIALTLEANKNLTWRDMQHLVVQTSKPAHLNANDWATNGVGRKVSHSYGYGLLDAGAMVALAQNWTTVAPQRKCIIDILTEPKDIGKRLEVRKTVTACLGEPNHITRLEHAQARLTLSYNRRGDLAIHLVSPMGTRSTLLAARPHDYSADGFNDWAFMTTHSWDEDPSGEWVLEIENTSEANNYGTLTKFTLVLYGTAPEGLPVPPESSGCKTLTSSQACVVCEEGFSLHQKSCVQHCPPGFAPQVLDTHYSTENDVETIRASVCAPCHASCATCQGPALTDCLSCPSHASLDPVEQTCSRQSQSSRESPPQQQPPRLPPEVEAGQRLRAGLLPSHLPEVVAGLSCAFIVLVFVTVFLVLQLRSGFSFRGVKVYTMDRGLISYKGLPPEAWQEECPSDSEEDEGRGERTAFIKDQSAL
- EXPERIMENT_SUMMARY: furin cleavage Z-score vs untreated control; higher = more cleavage, active = 3.5 or more, inactive = 1 or less, 8 variable residues between constant flanks
- MEASUREMENT_CONTEXT: 30 min
The other results are listed elsewhere or left out. How many sequences the whole screen found active is unknown.
Answers are plain numbers.

SEQUENCE_CHAIN	furin cleavage Z-score
CAAIFQGPIDAGNASASA [NG8]	-1.13
CARKKRVHFHAGNASASA [FS-2271]	0.343
CAYLEVVTSTAGNASASA [HC2269]	0.356
CARKKRSGRHAGNASASA [FS-2968]	8.64
CAKKSRSGRHAGNASASA [FS-1635]	4.08
CARTVVLTESAGNASASA [HC1326]	-0.545

Here is the next item to consider.
Task item: Value lookup for furin cleavage Z-score; key = CATIASPKGPAGNASASA [HC705]
Reply: -1.2

Values were extracted from the supplement of paper PMC3545927.
